value type: melting point

Answered cases to consult:
compound: Cc1sc(-n2cccc2)c(C(=O)N2CCCC2)c1C
melting point: 100 °C
//
compound: CC(=O)CC(=O)NC1CCCCCCC1
melting point: 44 °C
//
compound: CC(=O)c1ccc2c(c1)[C@@H](NC(=O)Nc1ccccc1)[C@H](O)C(C)(C)O2 (relative stereo)
melting point: 210 to 211 °C

Asked: Hello, please tell me recorded melting point for this one: CCNc1nc(Cl)ccc1C(=O)O
Given back: 158 to 160 °C

Asked: Quickly give me recorded melting point for Nc1ncccc1C(=O)NCC1CCN(C[C@H]2COc3ccc(Cl)cc3O2)CC1
Given back: 150 to 152 °C

Asked: Tell me measured melting point for CS(=O)(=O)c1ccc(-c2c(F)c3cccccc-3c2-c2ccccc2)cc1 please.
Given back: 120 to 122 °C

---

value type: melting point

These recorded examples may help you get a feel for the data.
compound: O=C(c1cc2cc3[nH]c(=O)oc3cc2[nH]1)N1CCC(Cc2ccc(F)cc2)CC1
reading: 244 to 247 °C

compound: CCS(=O)(=O)Nc1cccc(C(=C(C)C)c2c[nH]cn2)c1
reading: 152 to 155 °C

compound: Cc1ccc(S(N)(=O)=O)cc1NC(=O)c1cnn2c(C(F)(F)F)cc(-c3ccc(C(F)(F)F)cc3)nc12
reading: 310 °C

compound: Cc1cc(Cl)cc(C(=O)NCC(C)S(C)=O)c1NC(=O)c1cc(C(F)(F)F)nn1-c1ncccc1Cl (stereo not given)
reading: 229 to 232 °C

compound: CCc1nc2nccc(-c3cccc(C(F)(F)F)c3)n2n1
reading: 132 to 134 °C

Asked: Give the reported value of melting point for this record: O=CN(O)C(CS(=O)(=O)c1ccc(Oc2ccc(OC(F)(F)F)cc2)cc1)CS(=O)(=O)N1CCC2(CC1)OCCO2 (stereo not given)
Given back: 178 to 179 °C

Asked: Return melting point (reported value) for this compound: O=C1C(c2ccc(O)cc2)=C(Br)c2cc(O)ccc21
Given back: 245 °C

Asked: State its melting point for this compound: CN(C(=O)CCc1ccc(CN2CCC3(CCCC3)CC2)cc1)c1ccc(-c2ccc(Cl)cc2)cc1
Given back: 119 °C

Asked: Supply reported melting point belonging to this compound: CCc1nc2c(N)nc3ccccc3c2n1CC(C)(C)C(N)=O
Given back: 279 to 281 °C

---

value type: melting point

compound: CCCCC(=O)Nc1ccc(C(F)(F)F)c(-n2nc(CCCC)n(Cc3ccc(-c4ccccc4S(=O)(=O)NC(=O)OC(C)(C)C)cc3F)c2=O)c1
reading: 179 to 182 °C

Asked: Give the reported value of melting point for this record: CC(C)(C)C(=O)N1CC=C(C#Cc2ccc3c(c2)NC(=O)CC(c2cccc(C#N)c2)=N3)CC1
Given back: 219 °C

Asked: Report melting point for O=C(N(C=Cc1ccc(F)cc1)C=Cc1ccc(F)cc1)C1(O)CSc2ccccc21 (stereo not given)
Given back: 150 to 151 °C

---

Each entry below carries its recorded melting point.

compound: COc1ccc2c(CN(C)C)cc(=O)oc2c1
melting point: 97 °C
--
compound: CCCCc1nc(Cl)c(COC)n1Cc1ccc(-c2ccccc2Cc2nnn[nH]2)cc1
melting point: 149 to 152 °C
--
compound: CCOC(=O)c1cc2c(C(F)(F)F)coc2nc1C(=O)OCC
melting point: 50 to 55 °C
--
compound: Cc1[nH]cnc1CNC(=N)NC#N
melting point: 216 to 221 °C
--
compound: CCCCCS(=O)(=O)NC(=O)CCc1cc(OCc2ccccc2)nn1Cc1ccc(Cl)cc1Cl
melting point: 139 to 141 °C
--
compound: N#CC(C(N)=S)c1ccc(Cl)c(Cl)c1 (centres undefined)
melting point: 143 °C
--
compound: CCc1nn(Cc2cc(=O)[nH]c(N)n2)c(CC)c1Oc1cc(Cl)cc(Cl)c1
melting point: 238 to 240 °C
--
compound: O=C(O)COc1c(Br)cc(-c2c3ccccc3c(Br)c3oc4ccccc4c23)cc1Br
melting point: 250 to 252 °C

Asked: Please indicate melting point recorded for CCOc1cc2c(O)c(C)cnc2nc1C
Given back: 238 to 242 °C

Asked: Read the entry OCc1cccc2nnsc12 and write its reported melting point.
Given back: 79 to 81 °C

Asked: Specify reported melting point for the compound shown: O=C(N1CCC(c2nc(-c3c(Cl)cccc3Cl)no2)CC1)N1CCCc2ccccc21
Given back: 63 to 68 °C

Asked: Return melting point for the following compound: COC(=O)C1(S(=O)(=O)N2CCC(=O)CC2)CCOCC1
Given back: 158 to 160 °C

Asked: Give the measured melting point for Oc1ncnc2c1c(-c1ccco1)nn2Cc1ccccc1
Given back: 242 °C

---

Reported melting point values follow for various compounds

A selection of reference data follows.
compound: CCCC(Cl)COC(=O)c1ccc(-c2ccc(-c3ccc(C(=O)OCC(Cl)CCC)cc3)cc2)cc1 (stereo not given)
melting point: 129 to 131 °C
//
compound: O=CC1CCN1C(c1ccccc1)c1ccccc1 (stereo not given)
melting point: 85 to 86 °C
//
compound: O=Cc1ncc2n1-c1ccc(Cl)cc1C(c1ccccc1F)=NC2
melting point: 182 to 183 °C
//
compound: CS(=O)(=O)N1CCN([C@@H](CNCS(=O)(=O)c2ccc(OCc3ccccc3)cc2)C(=O)NO)CC1
melting point: 110 °C
//
compound: CSc1nc(N)c2nsnc2n1
melting point: 197 to 199 °C

Asked: Annotate the compound NC(=O)c1nnn(Cc2ccc(Cl)c(C(Cl)=C(Cl)Cl)c2)c1N with its measured melting point.
Given back: 174 to 175 °C

Asked: Identify the reported melting point for the following entry. Cc1cc(C)c(-n2ccc3c(Cl)nn(C)c(=O)c32)c(C)c1
Given back: 170 to 171 °C

Asked: Identify melting point associated with the compound COCCN(C)S(=O)(=O)c1ccccc1Nc1nc(Nc2cc3c(cc2OC)CCN(CC(=O)N(C)C)CC3)ncc1Cl
Given back: 67 to 76 °C

Asked: Give the value of melting point reported for the following: Cc1cccc2c1C(=O)NS2(=O)=O
Given back: 224 to 226 °C

Asked: For the compound Cc1ccc(Cl)cc1C(=O)CO , give its measured melting point value.
Given back: 55 to 57 °C

Asked: Using the record for O=S(=O)(c1ccccc1)N1CCNc2ncc(I)cc21 , state its measured melting point.
Given back: 145 to 146 °C

Asked: Consider the compound COC(=O)NCC1Cc2c(Cl)cc3c(c2O1)CCC3 (stereo not given) . State its measured melting point.
Given back: 139 to 141 °C

Asked: Please give the documented melting point of Cn1ncnc1COc1nn2c(-c3ccc(F)cc3)nncc2c1C(C)(C)C
Given back: 197 °C

Asked: Tell me measured melting point for NNC(=O)C(Cl)(Cl)c1cccc(Cl)n1 please.
Given back: 198 to 200 °C

Asked: Respond only with melting point recorded for O=[N+]([O-])c1cccc2c1CN(Cc1ccccc1)C2
Given back: 77.5 to 78 °C

Asked: Tell us which melting point value is on record for CC(C)CCC(Sc1ccccc1)c1c(O)cc(-c2ccccc2)oc1=O (stereo not given)
Given back: 144 to 145 °C

Asked: Please list melting point recorded for the compound COc1ccc(N=c2scc(-c3ccc(Cl)c(S(=O)(=O)N(C)C)c3)n2C)cc1
Given back: 198 to 199 °C

Asked: Answer with the recorded melting point for the compound listed here: C#CCOc1cc(-n2nc(CCC=C)[nH]c2=O)c(Cl)cc1Cl
Given back: 150 to 151 °C

Asked: Query melting point for Cc1nc(-c2sc(-c3ccc(Cl)cc3)nc2C)sc1C(=O)N[C@H](C)[C@](O)(Cn1cncn1)c1ccc(F)cc1F
Given back: 110 to 114 °C

Asked: Input COCCc1nc2c(N)nc3cc(OCc4cccc(C#N)c4)ccc3c2n1CC(C)(C)O , output reported melting point.
Given back: 196 to 197 °C

Asked: Please look at this compound and report its melting point: CS(=O)CCCn1cnc(-c2ccc(F)cc2)c1-c1ccncc1 (racemic)
Given back: 122 to 123 °C

Asked: Using the record for CN1C(=O)CCC2(C)c3ccc(Sc4cccc5cccnc45)cc3CCC12 (stereo not given) , state its measured melting point.
Given back: 241 to 242 °C

---

melting point by entry:

compound: CC(C)(C)C(=O)NC#N
melting point: 112 to 118 °C

Asked: In one line, give reported melting point of the entry C=C(F)C(=O)Oc1c(Br)cc(C#N)cc1Br .
Given back: 135 to 138 °C

Asked: Tell me melting point reported for CCOc1cc(Cl)c2cc(F)c(F)c(F)c2n1
Given back: 45 °C

Asked: Tell me melting point reported for Cc1c(SCc2ccsc2)ccnc1CSc1nc2ccccc2[nH]1
Given back: 161 to 164 °C

---

The following molecules are listed with their measured melting point values.

molecule: CCCOC(C)c1ccc(-c2ccc(O)cc2)cc1 (single isomer, unassigned; (+))
value type: melting point
reading: 123 to 125 °C

molecule: O=S1(=O)c2ccccc2N(c2ccc(OCc3ccccc3)cc2)c2ccccc21
value type: melting point
reading: 203 to 208 °C

molecule: CN1C(=O)C(C)(C)N=C(c2ccccc2F)c2cc(NC(=O)OCc3ccccc3)cc(Cl)c21
value type: melting point
reading: 125 to 127 °C

molecule: O=C(Nc1noc2ccccc12)N1CCN(C(=O)OCc2ccccc2)CC1
value type: melting point
reading: 137 to 138 °C

molecule: O=C(O)c1cccc(C(=O)C=Cc2cccc(C=Cc3ccc4ccccc4n3)c2)c1O
value type: melting point
reading: 237 to 240 °C

From here, focus on the item given below.
Asked: Return melting point for the following molecule: C[C@H](NC(=O)COCCNC(=O)c1ccc(Cl)cc1)C(=O)N[C@H](CCC(=O)OCc1ccccc1)C(N)=O
Given back: 141 to 143 °C
